In this section, each of the molecules is paired with its reported Kdis.
systemUnderTest: T1, hAng2 (Homo sapiens, UniProt O15123)
T1 sequence (O15123 19-496): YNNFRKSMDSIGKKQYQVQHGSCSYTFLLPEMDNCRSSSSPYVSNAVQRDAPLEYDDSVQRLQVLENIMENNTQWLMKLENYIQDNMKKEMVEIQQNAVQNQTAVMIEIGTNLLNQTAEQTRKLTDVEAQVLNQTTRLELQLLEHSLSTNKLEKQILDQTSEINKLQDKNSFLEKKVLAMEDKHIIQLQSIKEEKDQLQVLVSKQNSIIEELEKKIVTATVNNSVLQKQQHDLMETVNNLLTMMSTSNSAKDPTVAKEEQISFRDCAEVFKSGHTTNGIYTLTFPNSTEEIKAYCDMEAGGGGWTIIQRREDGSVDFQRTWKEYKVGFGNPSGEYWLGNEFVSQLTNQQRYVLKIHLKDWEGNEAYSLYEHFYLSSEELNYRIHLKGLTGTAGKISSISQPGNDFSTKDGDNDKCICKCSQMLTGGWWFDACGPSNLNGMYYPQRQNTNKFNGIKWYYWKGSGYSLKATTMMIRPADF
assayName: OCTET affinity of humanized anti-Ang2 antibodies against hAng2
Format: binding
conditionDetails: OCTET, antibody fixed on AR2G biosensor, hAng2 50-0 nM, 1:1 binding model

molecule	Kdis
2C8H13: humanized anti-Ang2 antibody from mouse 2C8; VH SEQ ID NO: 95, VL SEQ ID NO: 96 (antibody, V domains shown, VH; VL) VH: QVQLVQSGAEVKKPGASVKVSCKASGYTFTSYWMHWVRQAPGQGLEWMGMIDPSDSETRLNQKFKDRVTMTRDTSTSTVYMELSSLRSEDTAVYYCARRFYYGSDWYFDVWGQGTLVTVSS VL: DIQLTQSPSFLSASVGDRVSITCKASQDVGTAVAWYQQKPGKAPKLLIYWASTRHTGVPDRFSGSGSGTEFTLTISSLQPEDFADYFCQQYSSYPLTFGQGTKVEIK	2.77e-05 s⁻¹
2C8H42: humanized anti-Ang2 antibody from mouse 2C8; VH SEQ ID NO: 87, VL SEQ ID NO: 88 (antibody, V domains shown, VH; VL) VH: QVQLVQSGAEVKKPGASVKVSCKASGYSFTSYWMHWVKQAPGQGLEWIGMIDPSDSETRLNQKFKDKASMTRDTSTSTVYMELSSLRSEDTAVYYCARRFYYGSDWYFDVWGQGTLVTVSS VL: DIQLTQSPSFLSASVGDRVSITCKASQDVGTAVAWYQQKPGKAPKLLIYWASTRHTGVPDRFSGSGSGTEFTLTISSLQPEDFATYYCQQYSSYPLTFGQGTKVEIK	3.07e-05 s⁻¹
